- Measurement target: T1, NCBD1 NCBD (Mus musculus, UniProt P45481)
- T1 chain: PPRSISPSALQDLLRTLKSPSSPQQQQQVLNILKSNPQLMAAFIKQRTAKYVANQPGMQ
Assay endpoint: pKd
Give bare numbers, as −log10 of the molar value.

### Prompt # lookup: pKd of ACTR ACTR (protein) GTQNRPLLRNSLDDLVGPPSNLEGQSDERALLDQLHTLLSNTDATGLEEIDRALGIPELVNQGQALEPKQD
### Response 7.11
